- Tested on: TTR
- test-name: TTR editing in primary human hepatocytes electroporated with Spy Cas9 protein loaded with dgRNAs (Table 7)
- Format: cell-based
- test-context: dgRNA electroporated with Spy Cas9 protein (RNP)
Entries annotated with measured Avg % Edit
readout-type: Avg % Edit (%)

residue-sequence	assay-value
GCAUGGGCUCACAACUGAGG (tested as dual guide RNA, chemistry not given here) [CR003362]	7.03
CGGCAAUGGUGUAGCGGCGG (tested as dual guide RNA, chemistry not given here) [CR003376]	1.90
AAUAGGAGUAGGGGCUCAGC (tested as dual guide RNA, chemistry not given here) [CR003384]	1.87
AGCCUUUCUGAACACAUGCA (tested as dual guide RNA, chemistry not given here) [CR003351]	51.77
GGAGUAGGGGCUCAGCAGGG (tested as dual guide RNA, chemistry not given here) [CR003382]	8.40
GUAUUCACAGCCAACGACUC (tested as dual guide RNA, chemistry not given here) [CR003373]	0.87
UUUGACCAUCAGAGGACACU (tested as dual guide RNA, chemistry not given here) [CR003344]	39.40
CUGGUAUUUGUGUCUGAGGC (tested as dual guide RNA, chemistry not given here) [CR003341]	11.43
